Molecular target: furin, P09958;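 also: purified furin at 1:10 enzyme:substrate in 50 mM HEPES pH 7.5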
Sequence (P09958 whole entry): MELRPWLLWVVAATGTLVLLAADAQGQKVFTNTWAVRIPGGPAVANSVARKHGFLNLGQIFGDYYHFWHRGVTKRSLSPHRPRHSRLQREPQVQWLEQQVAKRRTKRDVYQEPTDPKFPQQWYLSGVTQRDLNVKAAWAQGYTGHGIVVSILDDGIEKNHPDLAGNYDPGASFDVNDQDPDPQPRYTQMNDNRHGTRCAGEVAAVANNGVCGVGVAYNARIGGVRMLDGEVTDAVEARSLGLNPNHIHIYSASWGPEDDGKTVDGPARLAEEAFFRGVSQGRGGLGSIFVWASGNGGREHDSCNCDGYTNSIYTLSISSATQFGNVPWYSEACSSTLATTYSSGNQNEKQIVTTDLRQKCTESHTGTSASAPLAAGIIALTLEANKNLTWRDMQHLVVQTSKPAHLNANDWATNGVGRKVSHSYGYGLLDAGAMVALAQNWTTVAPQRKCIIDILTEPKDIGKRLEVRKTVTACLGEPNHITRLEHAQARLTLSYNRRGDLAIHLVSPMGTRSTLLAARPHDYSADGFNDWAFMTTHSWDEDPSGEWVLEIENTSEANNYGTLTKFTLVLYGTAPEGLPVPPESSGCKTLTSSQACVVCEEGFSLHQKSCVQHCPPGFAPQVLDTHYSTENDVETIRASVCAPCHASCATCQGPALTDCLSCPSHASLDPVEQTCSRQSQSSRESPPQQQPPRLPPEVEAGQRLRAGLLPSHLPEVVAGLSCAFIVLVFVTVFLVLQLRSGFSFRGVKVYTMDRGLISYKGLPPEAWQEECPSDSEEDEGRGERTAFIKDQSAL
Assay: furin cleavage Z-score vs untreated control; higher = more cleavage, active = 3.5 or more, inactive = 1 or less, 8 variable residues between constant flanks
Conditions: 30 min
The list shows a part of the results. How many sequences the whole screen found active is unknown.

{"entry.sequence": "CARFPRAYSYAGNASASA [FS-2924]", "furin cleavage Z-score": 4.36}
{"entry.sequence": "CAVVCCSTSYAGNASASA [HC2058]", "furin cleavage Z-score": 2.04}
{"entry.sequence": "CARVKRGSKVAGNASASA [FS-2100]", "furin cleavage Z-score": 4.45}
{"entry.sequence": "CARPKRGWVWAGNASASA [FS-2164]", "furin cleavage Z-score": 2.44}
{"entry.sequence": "CARVKRGWVWAGNASASA [FS-2101]", "furin cleavage Z-score": 8.77}
{"entry.sequence": "CARVKRPIENAGNASASA [FS-2531]", "furin cleavage Z-score": -0.955}
{"entry.sequence": "CATTPCSLSWAGNASASA [HC1885]", "furin cleavage Z-score": 0.14}
{"entry.sequence": "CAMEECSNHLAGNASASA [HC1741]", "furin cleavage Z-score": 0.956}
{"entry.sequence": "CARFPRTWWQAGNASASA [FS-1949]", "furin cleavage Z-score": 0.886}
{"entry.sequence": "CATTPCAGSWAGNASASA [HC61]", "furin cleavage Z-score": 1.04}
{"entry.sequence": "CARVESENKVAGNASASA [HC1282]", "furin cleavage Z-score": 1.18}
{"entry.sequence": "CARVKRTHVPAGNASASA [FS-2242]", "furin cleavage Z-score": 3.97}
{"entry.sequence": "CAFAPPCKPLAGNASASA [HC1227]", "furin cleavage Z-score": -1.52}
{"entry.sequence": "CAAWKSKKTPAGNASASA [HC1474]", "furin cleavage Z-score": -0.362}
{"entry.sequence": "CARSKRGWVWAGNASASA [FS-2605]", "furin cleavage Z-score": 4}
